Cited source: patent US20250382355A1

- experimental target: T1, SARS-CoV-2 spike protein on recombinant CHO K1 cells (SARS-CoV-2, UniProt P0DTC2 14-1273)
- T1 construct: whole, on cells
- assay protocol: FACS on CHO K1 cells
observable: log10(EC50) (log10 of the value in pM)
Form field - Quantity: EC50; Unit: pM; Scale: log10

Record 5D7 VHH-Fc (Fc fusion) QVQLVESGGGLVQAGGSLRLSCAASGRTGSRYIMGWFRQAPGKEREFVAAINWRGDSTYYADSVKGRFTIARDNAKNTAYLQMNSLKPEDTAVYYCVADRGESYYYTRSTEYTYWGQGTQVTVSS . Reported log10(EC50): 2.08

Record 11F5 VHH-Fc (Fc fusion) QVQLVESGGGAVQAGDSLRLSCTASGRTFSTYAVGWFRQAPGKERELLAAITGSGRNPYYPDSLKGRFTISREYAKLPVYLQMNSLKPEDTAVYYCAARRGAIATMPLDYDHWGQGTQVTVSS . Reported log10(EC50): 1.60

Record 15H7 VHH-Fc (Fc fusion) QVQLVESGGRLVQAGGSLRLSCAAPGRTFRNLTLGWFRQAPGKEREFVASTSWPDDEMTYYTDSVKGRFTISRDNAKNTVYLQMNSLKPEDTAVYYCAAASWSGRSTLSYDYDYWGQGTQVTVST . Reported log10(EC50): 2.45

Record S3_44 VHH-Fc (Fc fusion) QVQLVESGGGLVQPGGSLRLSCARSENNFSINAMAWYRQAPGKQRELVAAITTAGTTNYADSVKGRFTISRDNAKTTIYLQMNSLKPEDTAVYYCNLWAGTRDDLNEYWGQGTQVTVSS . Reported log10(EC50): 1.90

Record 8E9 VHH-Fc (Fc fusion) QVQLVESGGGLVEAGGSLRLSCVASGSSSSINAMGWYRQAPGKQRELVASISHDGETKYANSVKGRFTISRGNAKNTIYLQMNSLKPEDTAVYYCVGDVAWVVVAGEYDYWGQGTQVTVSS . Reported log10(EC50): 2.49

Record 19E10 VHH-Fc (Fc fusion) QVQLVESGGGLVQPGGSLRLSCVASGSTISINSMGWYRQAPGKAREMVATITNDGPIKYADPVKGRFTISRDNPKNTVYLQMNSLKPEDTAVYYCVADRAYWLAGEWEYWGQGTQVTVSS . Reported log10(EC50): 2.15

Record 9B2 VHH-Fc (Fc fusion) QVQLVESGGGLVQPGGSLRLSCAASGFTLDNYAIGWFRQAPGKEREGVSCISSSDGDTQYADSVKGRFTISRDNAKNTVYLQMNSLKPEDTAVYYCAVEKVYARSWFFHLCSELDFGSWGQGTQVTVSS . Reported log10(EC50): 2.32

Record S3_29 VHH-Fc (Fc fusion) QVQLVESGGGLVQPGGSLRLSCARSENNFSINAMAWYRQAPGKQRELVAAITTSGTTNYADSVKGRFTISRDNAKTTIYLQMNSLKPEDTAVYYCNLWAGTRDDLNEYWGQGTQVTVSS . Reported log10(EC50): 1.48

Record 7A9 VHH-Fc (Fc fusion) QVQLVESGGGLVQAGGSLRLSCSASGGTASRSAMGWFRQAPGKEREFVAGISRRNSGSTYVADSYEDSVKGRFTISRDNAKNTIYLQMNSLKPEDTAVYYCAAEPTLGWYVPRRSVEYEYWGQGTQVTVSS . Reported log10(EC50): 1.90

Record 1A11 VHH-Fc (Fc fusion) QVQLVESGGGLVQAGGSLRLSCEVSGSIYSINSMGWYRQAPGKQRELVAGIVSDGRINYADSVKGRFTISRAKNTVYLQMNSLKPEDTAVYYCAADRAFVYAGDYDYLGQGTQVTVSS . Reported log10(EC50): 2.11

Record 16H7 VHH-Fc (Fc fusion) QVQLVESGGGLVQAGGSLRLSCAASGRAFSKDTMGWFRQAPGKEREFVAVISASGDSTYYADFVKGRFTISRDNAKNTEYLQMNSLKPEDTAVYHCAADGARAYYSINAHRYSWAYNYWGQGTQVTVSS . Reported log10(EC50): 2.49

Record 19B8 VHH-Fc (Fc fusion) QVQLVESGGGLVQAGGSLRLSCAASGRTFTNYAMGWFRQAPGKEREFVAAISWSGGGTNYADSVKGRFTISRDNAKNTVYLQMNSPKPEDTAVYYCATTLGYYGSSSRLYEYWGQGTQVTVSS . Reported log10(EC50): 1.60

Record 20D11 VHH-Fc (Fc fusion) QVQLVESGGGLVQAGGSLRLSCAASGRTSSIYSVGWFRQAPGKERELVAGITWSGGTTYYSDSVKGRFTISRDNAKNTVNLQMNNLKPEDTAIYYCAVDRYSMTMSARDYDYWGQGTQVTVSS . Reported log10(EC50): 1.90

Record 13C8 VHH-Fc (Fc fusion) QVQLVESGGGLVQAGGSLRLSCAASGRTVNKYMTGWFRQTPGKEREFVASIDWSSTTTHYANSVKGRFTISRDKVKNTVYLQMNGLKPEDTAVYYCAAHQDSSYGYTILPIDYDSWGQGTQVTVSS . Reported log10(EC50): 2.34

Record 6A1 VHH-Fc (Fc fusion) QVQLVESGGGLVQAGGSLRLSCTASGNIFSVNVMGWHRQAPGKRRELVAALTNDGRRNYADSVKGRFTISRDNAKNTIYLEMNSLKPEDTAVYYCGTGTLESGFNSWGQGLQVTVSS . Reported log10(EC50): 2.15
